biological target: Alpha-bungarotoxin (Bungarus multicinctus) (UniProt P60615); assay: compounds binding labelled alpha-BTX control protein – biochemical, small-molecule microarray, Alexa647 label, 635/667 nm fluorescence, artefact control for SMM control protein annotation, profiling panel (AID 1117); conditions: alpha-BTX-A647 binding fluorescence, higher = more signal
Sequence (P60615 whole entry, looked up): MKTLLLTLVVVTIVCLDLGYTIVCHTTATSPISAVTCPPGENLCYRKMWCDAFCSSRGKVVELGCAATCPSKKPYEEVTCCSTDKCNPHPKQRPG
Returns Yes if the recorded composite z-score is greater than or equal to 1, and No otherwise.

# example entries with known answers
INSERT INTO assay_data (compound, assigned_label) VALUES
  ('CCOC(=O)C=Cc1cccc(C)c1O', 'No'),
  ('CCCC=C(CCC)[C@@H](NC(=O)c1cccs1)c1ccc(C(=O)OC)cc1', 'No'),
  ('[N-]=[N+]=Nc1ccccc1[C@H]1OC(c2ccc(OCCCO)cc2)=N[C@@]1(Cc1ccccc1)C(=O)NCCN1CCOCC1', 'Yes'),
  ('COc1cc(NN2C(C(O)c3cc(OC)c(OC)c(OC)c3)C=CC3C(=O)N(C)C(=O)C32)cc(OC)c1OC (configuration not stated)', 'Yes'),
  ('COCCOC(=O)N1C(=O)[C@@]2(c3cc(C#CC4=CCCCC4)ccc31)[C@H](c1ccccc1OCCO)N1[C@H](c3ccccc3)[C@H](c3ccccc3)OC(=O)[C@H]1[C@@H]2C(=O)NC[C@H](O)c1ccccc1', 'Yes');

q: Reported composite z-score at or above 1? C=CCNC(=O)[C@@H]1[C@H]2C(=O)O[C@H](c3ccccc3)[C@H](c3ccccc3)N2[C@H](c2ccc(OCCO)cc2)[C@@]12C(=O)N(C(=O)OCCOC)c1ccc(C#Cc3ccc(OC)cc3)cc12
a: Yes

q: Reported composite z-score at or above 1? Cc1ccc(S[C@]2(C(=O)NCc3ccccc3)CC(=O)N(C3CCCCC3)[C@@H]2c2ccc(CO)cc2I)cc1
a: No
